tested on: CHEAL; assay: Pre-emergence herbicidal activity on CHEAL (common lambsquarters); assay type: in vivo, Chenopodium album; conditions: lowest tested rate giving 80% or greater inhibition, approx. 14 days after planting and treating, greenhouse
Lab note: anything with Pre-emergence activity (GR80) on CHEAL at or over 200 g/ha counts as YES; the rest go in NO.

# molecule, class
data = [
    ("CCOc1c(F)cccc1C(=O)N[C@H](C)CNC(=O)c1cccc(C(F)(F)F)c1 [Example 41]", "YES"),
    ("Cc1cccc(C(=O)NC(C)CNC(=O)c2cccc(C(F)(F)F)c2)c1Br (stereo not drawn) [Example 66]", "NO"),
    ("O=C(NCC(CF)NC(=O)c1cccc(C(F)(F)F)c1)c1cccc(C(F)(F)F)c1 (stereo not drawn) [Example 10]", "YES"),
    ("CC(CNC(=O)c1cccc(C(F)(F)F)c1)NC(=O)c1cccc(C(F)(F)F)c1 (stereo not drawn) [Example 5]", "YES"),
    ("CCSc1ncccc1C(=O)NC(C)CNC(=O)c1cccc(C(F)(F)F)c1 (stereo not drawn) [Example 243]", "YES"),
    ("Cc1c(Cl)cccc1C(=O)NC(C)CNC(=O)c1cccc(C(F)(F)F)c1 (stereo not drawn) [Example 51]", "NO"),
    ("CC(CNC(=O)c1cccc(C(F)(F)F)c1)NC(=O)c1cccc(SC(F)(F)F)c1 (stereo not drawn) [Example 73]", "YES"),
    ("CC(CNC(=O)c1cccc(Br)c1)NC(=O)c1cccc(C(F)(F)F)c1F (stereo not drawn) [Example 152]", "YES"),
    ("CC(CNC(=O)c1cccc(C(F)(F)F)c1)NC(=O)c1c(-c2ccc(F)cc2Cl)noc1C(F)(F)Cl (stereo not drawn) [Example 264]", "YES"),
    ("CC(CNC(=O)c1cccc(C(F)(F)F)c1)NC(=O)c1cccc(F)c1Cl (stereo not drawn) [Example 37]", "NO"),
    ("Cc1c(I)cccc1C(=O)NC(C)CNC(=O)c1cccc(C(F)(F)F)c1 (stereo not drawn) [Example 61]", "YES"),
    ("CC(CNC(=O)c1cccc(C(F)(F)F)c1)NC(=O)c1cccc(Cl)c1Cl (stereo not drawn) [Example 50]", "NO"),
    ("Cc1cccc(C(=O)NC(C)CNC(=O)c2cccc(C(F)(F)F)c2)c1Cl (stereo not drawn) [Example 65]", "NO"),
    ("C[C@H](CNC(=O)c1cccc(C(F)(F)F)c1)NC(=O)Oc1cccc(C(F)(F)F)c1 [Example 229]", "YES"),
]

====

test system: SORHA; assay: Pre-emergence herbicidal activity on SORHA (johnsongrass, seedling); format: in vivo, Sorghum halepense; details: lowest tested rate giving 80% or greater inhibition, approx. 14 days after planting and treating, greenhouse

# compound, Pre-emergence activity (GR80) on SORHA
data = [
    ("CCOc1c(F)cccc1C(=O)N[C@H](C)CNC(=O)c1cccc(C(F)(F)F)c1 [Example 41]", "phyto"),
    ("COc1c(F)cccc1C(=O)NC(C)CNC(=O)c1cccc(C(F)(F)F)c1 (centres unmarked) [Example 40]", "phyto"),
    ("CC(CNC(=O)c1cccc(C(F)(F)F)c1)NC(=O)c1cccc(Cl)c1 (centres unmarked) [Example 43]", "phyto"),
    ("CC(CNC(=O)c1cccc(C(F)(F)F)c1)NC(=O)c1cccc(Br)c1F (centres unmarked) [Example 56]", "750 g/ha"),
    ("CC(CNC(=O)c1cccc(C(F)(F)F)c1)NC(=O)c1cccc(F)c1F (centres unmarked) [Example 34]", "750 g/ha"),
]

====

system: SORHA; assay: Pre-emergence herbicidal activity on SORHA (johnsongrass, seedling); format: in vivo, Sorghum halepense; details: lowest tested rate giving 80% or greater inhibition, approx. 14 days after planting and treating, greenhouse

# molecule, testedSystem, Pre-emergence activity (GR80) on SORHA
measured = [
    ("Cc1c(Cl)cccc1C(=O)NC(C)CNC(=O)c1cccc(C(F)(F)F)c1 (centres unmarked)", "SORHA", "1000 g/ha"),
    ("C[C@H](CNC(=O)c1cccc(C(F)(F)F)c1)NC(=O)Oc1ccc(F)cc1", "SORHA", "phyto"),
]

====

tested on: CONAR; assay: Pre-emergence herbicidal activity on CONAR (field bindweed); format: in vivo, Convolvulus arvensis; conditions: lowest tested rate giving 80% or greater inhibition, approx. 14 days after planting and treating, greenhouse

# compound, testedSystem, Pre-emergence activity (GR80) on CONAR
measured = [
    ("C[C@H](CNC(=O)c1cccc(C(F)(F)F)c1)NC(=O)Oc1ccc(F)cc1", "CONAR", "phyto"),
    ("COc1c(F)cccc1C(=O)NC(C)CNC(=O)c1cccc(C(F)(F)F)c1 (centres unmarked)", "CONAR", "phyto"),
    ("CC(CNC(=O)c1cccc(C(F)(F)F)c1)NC(=O)c1cc(C(C)(C)C)nn1C (centres unmarked)", "CONAR", "phyto"),
]

====

tested on: SORHA; experiment: Pre-emergence herbicidal activity on SORHA (johnsongrass, seedling); format: in vivo, Sorghum halepense; details: lowest tested rate giving 80% or greater inhibition, approx. 14 days after planting and treating, greenhouse

# compound, Pre-emergence activity (GR80) on SORHA
measured = [
    ("CC(CNC(=O)c1cccc(C(F)(F)F)c1)NC(=O)c1cccc(C(F)(F)F)c1 (stereo not shown)", "phyto"),
    ("CC(CNC(=O)c1cccc(C(F)(F)F)c1)NC(=O)c1cccc(I)c1 (stereo not shown)", "phyto"),
    ("CC(CNC(=O)c1cccc(C(F)(F)F)c1)NC(=O)c1ccccc1SCCCCl (stereo not shown)", "phyto"),
]

====

system: SORVU; assay: Pre-emergence herbicidal activity on SORVU (shattercane); format: in vivo, Sorghum vulgare; conditions: lowest tested rate giving 80% or greater inhibition, approx. 14 days after planting and treating, greenhouse

# compound, testedSystem, Pre-emergence activity (GR80) on SORVU
data = [
    ("CC(CNC(=O)c1cccc(C(F)(F)F)c1)NC(=O)c1cccc(F)c1F (stereo not drawn)", "SORVU", "phyto"),
    ("C[C@H](CNC(=O)c1cccc(C(F)(F)F)c1)NC(=O)c1cccc(C(F)(F)F)c1F", "SORVU", "1000 g/ha"),
    ("CC(CNC(=O)c1cccc(C(F)(F)F)c1)NC(=O)c1cccc(C(F)(F)F)c1 (stereo not drawn)", "SORVU", "phyto"),
]

====

tested on: SORHA; test: Pre-emergence herbicidal activity on SORHA (johnsongrass, seedling); assay type: in vivo, Sorghum halepense; details: lowest tested rate giving 80% or greater inhibition, approx. 14 days after planting and treating, greenhouse

# molecule, Pre-emergence activity (GR80) on SORHA
rows = [
    ("C[C@H](CNC(=O)c1cccc(C(F)(F)F)c1)NC(=O)Oc1cccc(C(F)(F)F)c1", "phyto"),
    ("CC(CNC(=O)c1cccc(C(F)(F)F)c1)NC(=O)c1cccc(SC(F)(F)F)c1 (stereo not shown)", "phyto"),
]
